Cited source for all entries: ChEMBL document CHEMBL1122702

Species: Rattus norvegicus
assay_explanation: The distribution of the 131 I-labeled compound at 5 min was evaluated in rat brain as Percent of injected dose in the total organ
Assay type: ADME, organism-based
protocol_conditions: in vivo
# Dose per record follows
property_measured: Dose (%)

compound	readout_unit	measured_result
COc1cc(CC(C)N(C)C)c(OC)cc1I (configuration not stated)	%	3.4
COc1cc(CC(C)N(C)Cc2ccccc2)c(OC)cc1I (configuration not stated)	%	0.29
CNC(C)Cc1cc(OC)c(I)cc1OC (configuration not stated)	%	0.97
COc1cc(CC(C)NN)c(OC)cc1I (configuration not stated)	%	0.72
COc1cc(CC(C)NCC#N)c(OC)cc1I (configuration not stated)	%	0.61
COc1cc(CC(C)NC(C)C)c(OC)cc1I (configuration not stated)	%	1.2
COc1cc(CC(C)N)c(OC)cc1I (configuration not stated)	%	0.64
